Test: inhibitors of TNFa-induced NFkB p65 translocation, primary screen, imaging, HUVEC, MLSMR starter and 10KST1 sets (AID 438);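 further: compound added about 3h40 before a 20 min TNFalpha stimulation; signal is the nuclear over cytoplasmic p65 intensity ratio per well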
Conditions: HUVEC TNFa-induced p65 nuclear translocation; at 2 µM, 0% TNFa-plus-vehicle, 100% no-TNFa wells
Activity calls are given as the source filed them.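 How the source made its calls: active means inhibition above 20% together with a positive visual image hit; inconclusive means visual image hit but inhibition not above 20%; inactive means no visual image hit.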
Write down the outcome that applies. Available outcomes: active, inactive

Just curious, what result did CC1CCC(C(=O)NC(C(=O)NCCN2CCC(C)CC2)C(C)C)CC1 (centres undefined) get here?
inactive

Now give it for COC(=O)CCSCc1cn2cc(Cl)ccc2n1 too.
inactive

----------
Recorded NADPH fluorescence slope by entry
Assayed System: Voltage-gated potassium channel subunit beta-2 (Rattus norvegicus)
Test: enhancers of rat Kvbeta2 NADPH turnover – biochemical, NADPH fluorescence, primary screen (AID 623);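 further: fluorescence intensity change per second fitted from 20 to 320 s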
Conditions: Recombinant KvBeta, NADPH fluorescence decrease slope, 10 min; at 10 µM; stronger effect = lower value
Enter the number alone.

Completed entries (count: 5):
Any idea what NADPH fluorescence slope was measured for O=C(NCc1cccnc1)c1ccccn1 ?
-4.5e-06

// repeat for COc1ccc(-c2cc(C(F)(F)F)n3nc(C(=O)N4CCOCC4)nc3n2)cc1 and report
-5.6e-05

// repeat for CCN1CCN(c2ncnc3c2cnn3-c2ccc(C)cc2C)CC1 and report
-1.4e-05

Same thing, different compound: CCOC(=O)c1ccccc1NC1c2ccccc2C(=O)N1C1CCN(C(=O)OCC)CC1 (stereo not given)
-3.3e-05

Try Cc1nnc(C)c2c(C)n(Cc3ccc4c(c3)OCO4)c(C)c12 next.
4.5e-06

Next:
Fill blank: measured NADPH fluorescence slope of the compound O=C(NC1CCCC1)C(c1cccs1)N(Cc1ccco1)C(=O)Cn1nnc(-c2cccs2)n1 (stereo not given) is ____.
-3.1e-05

Please answer likewise for Cc1ccnc(NC(=O)C2CCC(CNc3c(N4CCCC4)c(=O)c3=O)CC2)c1 (stereo not given)
-2.9e-05

Try COc1cc(C(=O)NCCc2ccc3c(c2)OCCO3)ccc1OCC(=O)N1CCOCC1 next.
-5.4e-05

Consider next the compound Cc1ccc(NC(=O)CN(c2ccc3c(c2)OCO3)S(=O)(=O)c2c(C)n[nH]c2C)cc1 in the same way.
-5.2e-05

Try the compound CC(=O)Nc1ccc2c(c1)nc(CCNC(=O)c1ccccc1)n2C
-4.9e-05
